- Test system: B6C3F1 mice, colon carcinoma 38 s.c., T/C
- ASSAY COMMENT: NCI In Vivo Anticancer Drug Screen. Data for tumor model Colon Carcinoma 38 (subcutaneous) in B6C3F1 mice
- MEASUREMENT PARAMETERS: endpoint: median tumor weight (est.); dose: 25.0 mg/kg/injection; schedule: Q07DX002 (ip); vehicle: saline with Tween-80; higher = larger tumour
Records with an inconclusive call do not appear.
Item-by-item account of T/C
ENDPOINT LABEL: T/C

compound="CCC(NC(N)=O)C(CC)NC(N)=O (stereo unspecified)" tested_target="B6C3F1 mice, colon carcinoma 38 s.c., T/C" endpoint_label=T/C result="83 % of control"
compound="O=C(CCCN1CCC(C(O)c2ccc(F)cc2)CC1)c1ccc(F)cc1 (stereo unspecified)" tested_target="B6C3F1 mice, colon carcinoma 38 s.c., T/C" endpoint_label=T/C result="49 % of control"
compound=NS(=O)(=O)OCCCCCCCOS(N)(=O)=O tested_target="B6C3F1 mice, colon carcinoma 38 s.c., T/C" endpoint_label=T/C result="270 % of control"
compound="CC1c2ccccc2CC(CCN(C)C)c2ccccc21 (stereo unspecified)" tested_target="B6C3F1 mice, colon carcinoma 38 s.c., T/C" endpoint_label=T/C result="84 % of control"
compound=C[CH2][Sn]([CH2]C)([CH2]C(=O)OC)[CH2]C(=O)OC tested_target="B6C3F1 mice, colon carcinoma 38 s.c., T/C" endpoint_label=T/C result="74 % of control"
compound=Nc1nc(N)c2c(ccc3c2ccn3Cc2cccc([N+](=O)[O-])c2)n1 tested_target="B6C3F1 mice, colon carcinoma 38 s.c., T/C" endpoint_label=T/C result="57 % of control"
compound=O=[N+]([O-])c1ccc(N(CCO)CCO)c2c1no[n+]2[O-] tested_target="B6C3F1 mice, colon carcinoma 38 s.c., T/C" endpoint_label=T/C result="85 % of control"
compound="CCCCCCCCCCCCCCCCCC(=O)Nc1ccn(C2OC(CO)C(O)C2O)c(=O)n1 (stereo unspecified)" tested_target="B6C3F1 mice, colon carcinoma 38 s.c., T/C" endpoint_label=T/C result="40 % of control"
compound="CCCCCC1c2cc(O)ccc2OC1N1CCOCC1 (stereo unspecified)" tested_target="B6C3F1 mice, colon carcinoma 38 s.c., T/C" endpoint_label=T/C result="103 % of control"
compound=Nc1ccc2c(c1)CN1C(=O)c3ccccc3C1=N2 tested_target="B6C3F1 mice, colon carcinoma 38 s.c., T/C" endpoint_label=T/C result="60 % of control"
compound=O=C(CCCCCCC(=O)ON1C(=O)CCC1=O)ON1C(=O)CCC1=O tested_target="B6C3F1 mice, colon carcinoma 38 s.c., T/C" endpoint_label=T/C result="69 % of control"

---

- Tested on: B6C3F1 mice, colon carcinoma 38 s.c., T/C
- ASSAY COMMENT: NCI In Vivo Anticancer Drug Screen. Data for tumor model Colon Carcinoma 38 (subcutaneous) in B6C3F1 mice
- MEASUREMENT PARAMETERS: endpoint: median tumor weight (est.); dose: 100.0 mg/kg/injection; schedule: Q07DX002 (ip); vehicle: saline with Tween-80; higher = larger tumour
Inconclusive results are not listed.
ENDPOINT LABEL: T/C

molecule=ClCc1ccc2ccccc2n1 result="86 % of control"
molecule=S=C(NCNC(=S)c1ccncc1)c1ccncc1 result="70 % of control"
molecule=O=C1[C@H]2CCC[C@H]2[C@H]2CCC[C@@H]12 result="41 % of control"
molecule="CN(C)C1C(=O)C(C(=O)NP(=O)(NCCCO)N(CCCl)CCCl)=C(O)C2(O)C(=O)C3=C(O)c4c(O)cccc4C(C)(O)C3CC12 (centres undefined)" result="176 % of control"
molecule="CCC(NC(N)=O)C(CC)NC(N)=O (centres undefined)" result="81 % of control"
molecule=NS(=O)(=O)OCCCCCCCOS(N)(=O)=O result="94 % of control"
molecule=Nc1ccc2c(c1)CN1C(=O)c3ccccc3C1=N2 result="60 % of control"
molecule=O=[N+]([O-])c1ccc(N2CCOCC2)c2c1no[n+]2[O-] result="98 % of control"
molecule=COc1cc2c[n+](C)c3c(c2cc1OC)Cc1cc2c(cc1-3)OCO2 result="107 % of control"

---

- Test system: B6C3F1 mice, colon carcinoma 38 s.c., T/C
- ASSAY COMMENT: NCI In Vivo Anticancer Drug Screen. Data for tumor model Colon Carcinoma 38 (subcutaneous) in B6C3F1 mice
- MEASUREMENT PARAMETERS: endpoint: median tumor weight (est.); dose: 50.0 mg/kg/injection; schedule: Q07DX002 (ip); vehicle: saline with Tween-80; higher = larger tumour
Records with an inconclusive call do not appear.
ENDPOINT LABEL: T/C

molecule="CC1c2ccccc2CC(CCN(C)C)c2ccccc21 (stereo not drawn)" endpoint_label=T/C result="108 % of control"
molecule=NS(=O)(=O)OCCCCCCCOS(N)(=O)=O endpoint_label=T/C result="192 % of control"
molecule=COc1cc2c[n+](C)c3c(c2cc1OC)Cc1cc2c(cc1-3)OCO2 endpoint_label=T/C result="94 % of control"
